Tested on: B6C3F1 mice, B16 melanoma ip, median survival T/C
assay.comment: NCI In Vivo Anticancer Drug Screen. Data for tumor model B16 Melanoma (intraperitoneal) in B6C3F1 mice
test.parameters: endpoint: median survival time; dose: 1.5 mg/kg/injection; schedule: Q01DX009 (ip); vehicle: water; higher = longer survival
Toxic doses and inconclusive results are not listed.
The entries below are paired with their reported T/C.

Example entries and their recorded answers appear below.
{"compound": "O=NN(CCCl)C(=O)NCCO", "T/C": "102 % of control"}
{"compound": "Cc1ccc(NN=O)nc1", "T/C": "120 % of control"}
{"compound": "CNCCN=c1ccc2c3c1c(O)c1c(O)ccc(=O)c1c3[nH]n2CCNCCO", "T/C": "357 % of control"}

Ask: So what's the measured T/C for this one? COc1cccc2c1C(=O)c1c(O)c3c(c(O)c1C2=O)C[C@H](O)C[C@@H]3OC1CC(N)C(O)C(C)O1 (stereo partly specified)
Result: 164 % of control

Ask: Can you check CC[C@](O)(C(=O)O)c1cc2n(c(=O)c1CO)Cc1cc3ccccc3nc1-2 next?
Result: 154 % of control

Ask: Can you check CCCCCCCC(=O)N/N=C(\CO)[C@]1(O)Cc2c(O)c3c(c(O)c2[C@@H](OC2CC(N)C(O)C(C)O2)C1)C(=O)c1c(OC)cccc1C3=O (stereo partly specified) next?
Result: 171 % of control

###

Tested on: B6C3F1 mice, B16 melanoma ip, median survival T/C
assay.comment: NCI In Vivo Anticancer Drug Screen. Data for tumor model B16 Melanoma (intraperitoneal) in B6C3F1 mice
test.parameters: endpoint: median survival time; dose: 3.13 mg/kg/injection; schedule: Q01DX009 (ip); vehicle: saline; higher = longer survival
Inconclusive results and toxic doses are left out.
The entries below are paired with their reported T/C.

{"smiles": "CCCCCCCCCCCCOCCCOP(=O)([O-])OCC[N+](C)(C)C", "measurement": "100 % of control"}

Ask: So what's the measured T/C for this one? CC1=C(O)C(=O)[C@@H]2O[C@@H]2C1=O
Result: 107 % of control

Ask: Can you check CCOC(=O)N1CCN(CCCCCCOc2ccc(C3CCCCC3)cc2)CC1 next?
Result: 93 % of control

Ask: Can you check O=C(Nc1cccnc1)c1ccc([N+](=O)[O-])s1 next?
Result: 97 % of control

###

The entries below are paired with their reported T/C.
Tested on: B6C3F1 mice, B16 melanoma ip, median survival T/C
assay.comment: NCI In Vivo Anticancer Drug Screen. Data for tumor model B16 Melanoma (intraperitoneal) in B6C3F1 mice
test.parameters: endpoint: median survival time; dose: 200.0 mg/kg/injection; schedule: Q01DX009 (ip); vehicle: Klucel (hydroxypropylcellulose) (HPC); higher = longer survival
Inconclusive results and toxic doses are left out. Where a SMILES comes first, the peptide text is derived from it. [ ]: non-standard residue; d: D form. The star is where a group is joined. Nle = CCCC[CH](N)C(=O)O; Cbz = O=C(OCc1ccccc1)*; Nva = CCC[CH](N)C(=O)O

Example entries and their recorded answers appear below.
{"compound": "CSCCC(NC(=O)CNC(=O)OCc1ccccc1)C(=O)O (stereo not given)", "T/C": "101 % of control"}
{"compound": "CCCCC(NC(=O)C(CCC)NC(=O)OCc1ccccc1)C(=O)O (stereo not given) (Cbz-[Nva]-[Nle]-OH; configuration not given here)", "T/C": "101 % of control"}
{"compound": "O=C1NC(=O)C2(CCC(C3CCCCC3)CC2)N1 (stereo not given)", "T/C": "89 % of control"}
{"compound": "O=C1CC2(C(=O)N1CN1CCCCC1)c1ccccc1-c1ccccc12", "T/C": "92 % of control"}

Then this compound:
Ask: So what's the measured T/C for this one? CCCC(NC(=O)OCc1ccccc1)C(=O)NC(CO)C(=O)O (stereo not given) (Cbz-[Nva]-Ser-OH; configuration not given here)
Result: 100 % of control

###

Test system: B6C3F1 mice, B16 melanoma ip, median survival T/C
assay.comment: NCI In Vivo Anticancer Drug Screen. Data for tumor model B16 Melanoma (intraperitoneal) in B6C3F1 mice
test.parameters: endpoint: median survival time; dose: 3.0 mg/kg/injection; schedule: Q01DX009 (ip); vehicle: saline with Tween-80
Toxic doses and inconclusive results are not listed. The calls were made as follows: active = survival T/C of 150% or more; inactive = T/C below 125% in these data.
// classify into active, inactive

Solved cases below.
{"compound": "CN=C(N)N/N=C(\\c1ccccc1)c1ccc(Br)cc1", "class.label": "inactive"}
{"compound": "COc1cccc2c1C(=O)c1c(O)c3c(c(O)c1C2=O)C[C@@](O)(C(C)=O)C[C@@H]3OC1CC(N(Cc2ccccc2)Cc2ccccc2)C(O)C(C)O1 (stereo partly specified)", "class.label": "inactive"}
{"compound": "Cn1c(-c2ccc(/C=N\\N3CCN(/N=C/c4ccc(-c5c[n+]6ccsc6n5C)cc4)CC3)cc2)c[n+]2ccsc12", "class.label": "inactive"}
{"compound": "CC(C)N1C(=O)N(Cl)C2C1N(Cl)C(=O)N2Cl (stereo unspecified)", "class.label": "inactive"}

Ask: Assay result, entry CCOC(=O)Nc1cc2c(c(N)n1)N=C(c1ccc(Cl)cc1Cl)CN2 — outcome?
Result: inactive

Ask: Can you check CC[C@@]1(O)C(=O)OCc2c1cc1n(c2=O)Cc2cc3ccccc3nc2-1 next?
Result: active

###

Test system: B6C3F1 mice, B16 melanoma ip, median survival T/C
assay.comment: NCI In Vivo Anticancer Drug Screen. Data for tumor model B16 Melanoma (intraperitoneal) in B6C3F1 mice
test.parameters: endpoint: median survival time; dose: 400.0 mg/kg/injection; schedule: Q01DX009 (ip); vehicle: Klucel (hydroxypropylcellulose) (HPC)
Inconclusive results and toxic doses are left out. The calls were made as follows: active = survival T/C of 150% or more; inactive = T/C below 125% in these data. Where a SMILES comes first, the peptide text is derived from it. The star is where a group is joined. Boc = CC(C)(C)OC(=O)*
// classify into 1.0 (active), 0.0 (inactive)

Ask: Assay result, entry N=c1nc2n(cc1F)[C@@H]1O[C@H](CO)[C@@H](O)[C@@H]1O2 — outcome?
Result: 0.0

Ask: Can you check C=C(NC(=O)C(=C)NC(=O)c1csc(C2=NC3c4csc(n4)C4NC(=O)c5csc(n5)C(C(C)(O)C(C)O)NC(=O)C5CSC(=N5)/C(=C/C)NC(=O)C(C(C)O)NC(=O)c5csc(n5)C3(CC2)NC(=O)C(C)NC(=O)C(=C)NC(=O)C(C)NC(=O)C(C(C)CC)NC2C=Cc3c(C(C)O)cc(nc3C2O)C(=O)OC4C)n1)C(N)=O (configuration not stated) next?
Result: 0.0

Ask: Can you check CCn1c(-c2ccc(OC(C)=O)cc2)c(C)c2cc(OC(C)=O)ccc21 next?
Result: 0.0

Ask: Can you check CSCCC(NC(=O)C(CC(C)C)NC(=O)OC(C)(C)C)C(N)=O (stereo not drawn) (Boc-Leu-Met-NH2; configuration not given here) next?
Result: 0.0

Ask: Can you check NC(=O)CCC(NC(=O)OCC1c2ccccc2-c2ccccc21)C(=O)O (configuration not stated) next?
Result: 0.0

Ask: Can you check CCCC(NC(=O)C(C)N)C(=O)O (configuration not stated) next?
Result: 0.0

Ask: Can you check CN(C)N=Nc1cn[nH]c1C(N)=O next?
Result: 0.0

Ask: Can you check CC(C)(C)OC(=O)NC(Cc1ccc(O)cc1)C(=O)O (configuration not stated) next?
Result: 0.0

###

Test system: B6C3F1 mice, B16 melanoma ip, median survival T/C
assay.comment: NCI In Vivo Anticancer Drug Screen. Data for tumor model B16 Melanoma (intraperitoneal) in B6C3F1 mice
test.parameters: endpoint: median survival time; dose: 50.0 mg/kg/injection; schedule: Q01DX009 (ip); vehicle: saline
Inconclusive results and toxic doses are left out. How the source made its calls: active means survival T/C of 150% or more; inactive means T/C below 125% in these data.
// classify into yes (active), no (inactive)

Solved cases below.
{"compound": "O=C(Nc1ccc(C2=NCCN2)cc1)c1ccc(C(=O)Nc2ccc(C3=NCCN3)cc2)c(Cl)c1", "class.label": "no"}
{"compound": "CCCCCCCCCCCCCCCCCC1=NC(C)CC(C)(C)O1 (stereo not given)", "class.label": "no"}
{"compound": "CC(O)CNC1c2ccccc2CC1O (stereo not given)", "class.label": "no"}
{"compound": "O=C1N(CC2CO2)CCN1CC1CO1 (stereo not given)", "class.label": "no"}
{"compound": "CCOC(=O)c1c[nH]c2oc(/C=N/N3CC(CN4CCOCC4)OC3=O)cc2c1=O (stereo not given)", "class.label": "no"}
{"compound": "c1cn[nH]c1", "class.label": "no"}

Ask: Assay result, entry CC(C)C(NC(=O)C(F)(F)F)C(=O)O (stereo not given) — outcome?
Result: no

Ask: Can you check O=[N+]([O-])O.[Ga] next?
Result: no

Ask: Can you check c1csc(C[N+]23CN4CN(CN(C4)C2)C3)c1 next?
Result: no

Ask: Can you check COc1ccccc1N=Nc1cc(S(=O)(=O)O)c2ccccc2c1O next?
Result: no

Ask: Can you check Cn1cnc([N+](=O)[O-])c1Sc1ncn[nH]1 next?
Result: no

Ask: Can you check O=Cc1ccc(O)c(O)c1 next?
Result: no

Ask: Can you check NC(=O)CCC(N)C(=O)O (stereo not given) next?
Result: no

Ask: Can you check COc1cc(C2c3cc4c(cc3[C@@H](OC3OC5CO[C@@H](C)OC5C(O)C3O)[C@H]3COC(=O)C23)OCO4)cc(OC)c1OC (stereo not given in full) next?
Result: yes
